Tested on: T cells
Assay explanation: TMP dose and exposure time on membrane bound IL15 expression (Table 89)
Type: cell-based
Test parameters: T-cell, 6 h; read-out: EC50, uM (total IL15 MFI)
Procedure: For this purpose, T cells were activated with CD3/CD28 beads at 3:1 bead to T cell ratio in 24-well plates for 24 hrs. Lentivirus was added to wells. After 24 hrs, fresh media was added every 2-3 days to expand cells while maintaining cells at 0.5-1×10^6/ml. On day 11 of expansion.
Property measured: EC50 (µM)
Just the number please, in µM, no unit attached.

Give EC50 for the following molecule: COc1cc(Cc2cnc(N)nc2N)cc(OC)c1OC
0.03
